experiment: label from the status in PepcDB records
assayReadout: protein production

{"sequenceChain": "MTGNSFHVSGYGPDKAGWTRLFARDSMARRLDWPILLAAVALSLMGSLLVYSATRNRTELNQGDQYYFLTRHLLNTGIGLALMVATVWLGHRALRTAVPLLYGFSVFLILLVLTPLGSTINGAHSWIKLPGGFSLQPSEFVKITIILGMAMLLAARVDAGDRPHPDHRTVLQALGLATVPMLIVMLMPDLGSVMVMVIIVLGILLASGASNRWIFGLLGAGTAGALAVWQLGILDDYQIARFAAFANPALDPAGVGYNTNQARIAIGSGGLTGSGLFEGSQTTGRFVPEQQTDFVFTVAGEELGFLGAGLIIALLGVVLWRGCRIARSTPDLYGTVVAAGIVAWFAFQTFENVGMTLGIMPVTGLPLPFVSYGGSSMFAVWIAVGLLQSITVQRPMSA", "assayReadout": "protein production", "value": "failed"}
{"sequenceChain": "VVFFRHLVSDDGSVRHTGDNLVGGVGQGGDDEAILVDLQRVPVHIDQIVFTVNSFTGQTFQEVQNAFCRLVDETNGQELARYTLAGGGAFTAQIMAKVHRAGQGWSMTAIGTPANGRTFQDLMPAILPVL", "assayReadout": "protein production", "value": "failed"}

Where do these numbers come from? They come from a protein production outcome set (Wang et al. 2014).
